// % Inhibition (Single Point Data) lookup, one value per entry
target: Human Cav3.1 calcium channel (Homo sapiens, UniProt O43497); construct: expressed in transfected cells; host or cells: HEK-293 natClytin/TASK1+Cav3.1 cell line; assay: Human Cav3.1 calcium channel patch clamp assay (SyncroPatch 384PE; single point and IC50, voltage dependent block); format: cell-based; conditions: Testing Conc 1; HEK-293 natClytin/TASK1+Cav3.1 cell line, patch clamp
Sequence (O43497 whole entry): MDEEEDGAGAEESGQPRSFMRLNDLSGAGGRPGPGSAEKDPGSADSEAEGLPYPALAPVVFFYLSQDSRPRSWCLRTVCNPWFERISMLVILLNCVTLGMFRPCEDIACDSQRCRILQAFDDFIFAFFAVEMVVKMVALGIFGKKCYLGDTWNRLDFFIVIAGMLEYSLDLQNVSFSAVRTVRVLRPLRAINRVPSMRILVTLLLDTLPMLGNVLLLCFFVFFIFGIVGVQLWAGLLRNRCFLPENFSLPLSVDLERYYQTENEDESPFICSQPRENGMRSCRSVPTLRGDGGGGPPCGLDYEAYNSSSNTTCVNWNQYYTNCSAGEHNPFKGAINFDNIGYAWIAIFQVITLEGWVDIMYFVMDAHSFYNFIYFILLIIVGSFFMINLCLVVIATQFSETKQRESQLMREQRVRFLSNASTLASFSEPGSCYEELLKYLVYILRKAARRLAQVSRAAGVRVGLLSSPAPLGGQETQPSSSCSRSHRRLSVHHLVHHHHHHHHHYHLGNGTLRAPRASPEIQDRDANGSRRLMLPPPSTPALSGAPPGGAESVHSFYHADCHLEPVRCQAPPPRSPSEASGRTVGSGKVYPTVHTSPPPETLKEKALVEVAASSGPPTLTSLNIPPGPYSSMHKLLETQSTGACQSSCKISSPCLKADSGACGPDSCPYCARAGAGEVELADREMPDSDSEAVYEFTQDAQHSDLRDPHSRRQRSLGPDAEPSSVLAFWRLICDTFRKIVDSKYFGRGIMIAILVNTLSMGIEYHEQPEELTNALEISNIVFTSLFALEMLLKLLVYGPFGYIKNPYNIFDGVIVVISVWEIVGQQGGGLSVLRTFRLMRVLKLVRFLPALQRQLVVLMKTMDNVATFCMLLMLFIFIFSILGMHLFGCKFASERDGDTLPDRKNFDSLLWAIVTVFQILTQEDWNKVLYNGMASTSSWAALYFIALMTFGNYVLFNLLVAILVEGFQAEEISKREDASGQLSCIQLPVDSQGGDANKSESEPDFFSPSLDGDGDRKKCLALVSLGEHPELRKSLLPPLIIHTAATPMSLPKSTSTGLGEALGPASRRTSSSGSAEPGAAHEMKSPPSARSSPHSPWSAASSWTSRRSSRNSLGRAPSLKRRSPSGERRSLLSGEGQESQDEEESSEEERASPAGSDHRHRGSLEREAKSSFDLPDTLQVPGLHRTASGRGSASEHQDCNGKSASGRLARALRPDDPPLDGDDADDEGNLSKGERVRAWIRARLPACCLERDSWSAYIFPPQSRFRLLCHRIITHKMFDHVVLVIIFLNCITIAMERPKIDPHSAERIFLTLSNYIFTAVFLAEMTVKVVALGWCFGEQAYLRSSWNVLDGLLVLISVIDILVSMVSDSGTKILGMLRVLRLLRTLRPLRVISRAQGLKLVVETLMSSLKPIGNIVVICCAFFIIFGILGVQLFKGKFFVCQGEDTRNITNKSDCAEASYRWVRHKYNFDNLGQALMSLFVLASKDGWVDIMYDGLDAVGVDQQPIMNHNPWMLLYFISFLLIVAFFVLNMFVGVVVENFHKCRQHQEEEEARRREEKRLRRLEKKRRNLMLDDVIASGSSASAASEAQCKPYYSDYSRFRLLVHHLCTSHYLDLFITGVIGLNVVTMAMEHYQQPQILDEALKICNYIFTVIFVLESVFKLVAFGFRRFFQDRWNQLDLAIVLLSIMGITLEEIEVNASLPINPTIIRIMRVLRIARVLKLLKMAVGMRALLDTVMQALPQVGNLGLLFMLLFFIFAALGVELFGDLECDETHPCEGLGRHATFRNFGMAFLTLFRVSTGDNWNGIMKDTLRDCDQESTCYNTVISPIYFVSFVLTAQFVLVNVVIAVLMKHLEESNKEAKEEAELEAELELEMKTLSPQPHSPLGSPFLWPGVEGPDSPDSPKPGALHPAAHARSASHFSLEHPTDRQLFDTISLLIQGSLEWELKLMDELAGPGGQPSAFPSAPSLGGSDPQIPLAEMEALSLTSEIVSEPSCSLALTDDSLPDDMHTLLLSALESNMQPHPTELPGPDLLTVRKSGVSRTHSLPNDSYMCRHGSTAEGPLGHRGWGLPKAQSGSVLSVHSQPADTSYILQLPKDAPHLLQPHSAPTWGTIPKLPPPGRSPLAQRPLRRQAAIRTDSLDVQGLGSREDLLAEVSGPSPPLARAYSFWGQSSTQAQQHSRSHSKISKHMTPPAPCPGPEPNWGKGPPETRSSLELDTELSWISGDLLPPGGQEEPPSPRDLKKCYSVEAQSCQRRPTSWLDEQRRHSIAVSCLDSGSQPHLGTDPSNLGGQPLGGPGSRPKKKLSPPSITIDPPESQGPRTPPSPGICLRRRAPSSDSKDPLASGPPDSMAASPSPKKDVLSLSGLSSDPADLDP
Respond with a number, then the unit of measure.

Some entries whose results are on file:
MOLECULE: CC(C)(C)NC(=O)CN1CCN(CC(=O)NC23CC4CC(CC(C4)C2)C3)C(=O)C1
ATTRIBUTE_MEASURED: % Inhibition (Single Point Data)
RECORDED_RESULT: 54.403%

MOLECULE: Cc1cc(NC(=O)CN2CCN(CC(=O)NC(C)(C)C)CC2)n(C)n1
ATTRIBUTE_MEASURED: % Inhibition (Single Point Data)
RECORDED_RESULT: 35.477%

MOLECULE: Cn1nc(NC(=O)CN2CCN(CC(=O)NC(C)(C)C)CC2)c2ccccc21
ATTRIBUTE_MEASURED: % Inhibition (Single Point Data)
RECORDED_RESULT: 17.386%

MOLECULE: CC(C)(C)NC(=O)CN1CCN(CC(=O)Nc2noc3ccccc23)CC1
ATTRIBUTE_MEASURED: % Inhibition (Single Point Data)
RECORDED_RESULT: 38.937%

MOLECULE: CC(C)(C)NC(=O)CN1CCCN(CC(=O)Nc2cc(F)cc(Cl)c2)CC1
ATTRIBUTE_MEASURED: % Inhibition (Single Point Data)
RECORDED_RESULT: 51.943%

Read the entry `CC(C)(C)NC(=O)CN1CCN(CC(=O)Nc2cc(F)cc(Cl)c2)C(=O)C1` and write its reported % Inhibition (Single Point Data).
42.822%

Note % Inhibition (Single Point Data) for the molecule shown: COCC1CN(CC(=O)NC(C)(C)C)CCN1CC(=O)Nc1cc(F)cc(Cl)c1 (centres unmarked)
62.5%

Give the value of % Inhibition (Single Point Data) reported for the following: `CC(C)(C)NC(=O)CN1CCCN(CC(=O)Nc2cc(F)cc(Cl)c2)C(=O)C1`
45.763%

* * *

biological target: Human Cav3.1 calcium channel (Homo sapiens, UniProt O43497); construct: expressed in transfected cells; host or cells: HEK-293 natClytin/TASK1+Cav3.1 cell line; experiment: Human Cav3.1 calcium channel patch clamp assay (SyncroPatch 384PE; single point and IC50, voltage dependent block); type: cell-based; settings: Testing Conc 1.25; HEK-293 natClytin/TASK1+Cav3.1 cell line, patch clamp
ATTRIBUTE_MEASURED: % Inhibition (Single Point Data) (%)
Answer format: numeric, % implied, no suffix.

The following compounds have reported results that may help.
COMPOUND: N#CC1(CN2C3CC2CN(Cc2nc4c(Cl)ccc(F)c4[nH]2)C3)CCC(F)(F)CC1
UNIT_ANNOTATION: %
% Inhibition (Single Point Data): 32.612
--
COMPOUND: COc1cc(Cl)cc(NC(=O)CN2C[C@@H]3C[C@H]2CN3CC(=O)NC(C)(C)C)c1
UNIT_ANNOTATION: %
% Inhibition (Single Point Data): 98.739
--
COMPOUND: O=C(CN1C[C@@H]2C[C@H]1CN2CCC1CCOCC1)NC12CC3CC(CC(C3)C1)C2
UNIT_ANNOTATION: %
% Inhibition (Single Point Data): 18.238
--
COMPOUND: CC(C)(C)NC(=O)CN1C[C@@H]2C[C@H]1CN2CC(=O)Nc1cc(F)cc(Cl)c1
UNIT_ANNOTATION: %
% Inhibition (Single Point Data): 91.889
--
COMPOUND: CC1(C)CCCC(=O)N1CCN1C2CC1CN(Cc1nc3c(Cl)cc(F)cc3[nH]1)C2
UNIT_ANNOTATION: %
% Inhibition (Single Point Data): 96.655

Supply reported % Inhibition (Single Point Data) belonging to this compound: Fc1ccc(Cl)c2nc(CN3CCN(CC(F)C4CCCCC4)CC3)[nH]c12 (centres unmarked)
95.402

Look up and state reported % Inhibition (Single Point Data) for CC(C)(NC(=O)CN1CC2CC1CN2CC(=O)Nc1cc(F)cc(OC(F)F)c1)C(F)(F)F (centres unmarked)
76.829

Kindly indicate its recorded % Inhibition (Single Point Data). Item: `COc1cc(NC(=O)CN2CC3CC(C2)N3CC(=O)NC(C)(C)C)ccc1Cl`
102.24

Identify measured % Inhibition (Single Point Data) corresponding to `CC(C)(C)NC(=O)CN1C2CC1CN(CC(=O)NC13CCC(CC1)CC3)C2`
41.625

State, in one line, measured % Inhibition (Single Point Data) of `CC1(C)CN(C(=O)CN2C[C@@H]3C[C@H]2CN3CC(=O)NC23CC4CC(CC(C4)C2)C3)C1`
48.399

State its % Inhibition (Single Point Data) for this compound: `O=C(CN1C[C@@H]2C[C@H]1CN2CC(=O)NC1(C(F)(F)F)CC1)Nc1ccc(F)c(Cl)c1`
66.125

Determine from records and report % Inhibition (Single Point Data) for `O=C(CN1CC2CC(C1)N2CC(=O)NC1(C(F)(F)F)CC1)Nc1ccc(F)c(Cl)c1`
80.113

Tell me % Inhibition (Single Point Data) reported for `CN(C(=O)CN1C2CCC1CN(Cc1nc3c(Cl)cc(F)cc3[nH]1)C2)C(C)(C)C(=O)O`
7.971

Please supply the value of reported % Inhibition (Single Point Data) for the item CC(C)(C)NC(=O)CN1CC2CCC1CN2CC(=O)NC12CC3CC(CC(C3)C1)C2 (centres unmarked)
76.573

Output measured % Inhibition (Single Point Data) for this item: CC(C)(C)NC(=O)CN1CC2CC1CN2CC(=O)Nc1cc(F)cc(OC(F)F)c1 (centres unmarked)
95.51

Supply reported % Inhibition (Single Point Data) belonging to this compound: `CC(C)(C)NC(=O)CN1C[C@H]2C[C@@H]1CN2CC(=O)NC12CC3CC(CC(C3)C1)C2`
70.332

# return recorded % Inhibition (Single Point Data) for entry `CC(C)(C)NC(=O)CN1C2COCC1CN(Cc1nc3c(Cl)cc(F)cc3[nH]1)C2`
11.572

Specify measured % Inhibition (Single Point Data) for `O=C(CN1CC2CC(C1)N2CC(=O)NC1(C(F)(F)F)CC1)NC12CC3CC(CC(C3)C1)C2` .
54.316

Tell me % Inhibition (Single Point Data) reported for `CC(C)(CCN1C[C@@H]2C[C@H]1CN2CC(=O)NC12CC3CC(CC(C3)C1)C2)C(F)(F)F`
59.633

Identify % Inhibition (Single Point Data) associated with the compound `CC(C)(C)NC(=O)CN1C2CC1CN(CC(=O)Nc1ccc(F)c(Cl)c1)C2`
97.034

Complete the entry with % Inhibition (Single Point Data) for O=C(CN1CC2CC1CN2CCNC(=O)C1(C(F)(F)F)CCC1)Nc1ccc(F)c(Cl)c1 (centres unmarked)
84.472

Fill in reported % Inhibition (Single Point Data) for this entry: `CC(C)(C)NC(=O)CN1C2CC1CN(CC(=O)Nc1ccc(F)c(OC(F)(F)F)c1)C2`
93.661

Identify measured % Inhibition (Single Point Data) corresponding to `C[C@@H](c1nc2c(Cl)cc(F)cc2[nH]1)N1CC2CCC(C1)N2CC(=O)NC(C)(C)C`
95.894

Dear colleague, please send me the reported % Inhibition (Single Point Data) for `CC(C)(C)NC(=O)CN1C[C@@H]2C[C@H]1CN2CC(=O)Nc1cc(Cl)cc(OC(F)F)c1` when you can.
101.56

Using known records, supply % Inhibition (Single Point Data) for `Fc1cc(Cl)c2nc(CN3CC4CC(C3)N4CC3CCOCC3)[nH]c2c1`
40.989

Give the value of % Inhibition (Single Point Data) reported for the following: CC(C)(C)NC(=O)CN1CC2CC1CN2Cc1nc2c(Cl)cc(F)cc2[nH]1 (centres unmarked)
94.215

Supply recorded % Inhibition (Single Point Data) for `CC(C)(C)NC(=O)CN1C2CC1CN(C(=O)NCC13CC4CC(CC(C4)C1)C3)C2` here.
0.753

* * *

target: Human Cav3.1 calcium channel (Homo sapiens); construct: expressed in transfected cells; host or cells: HEK-293 natClytin/TASK1+Cav3.1 cell line; assay: Human Cav3.1 calcium channel patch clamp assay (SyncroPatch 384PE; single point and IC50, voltage dependent block); type: cell-based; conditions: voltage dependent block (VDB); HEK-293 natClytin/TASK1+Cav3.1 cell line; read-out: Cav3.1 IC50
pIC50 for assorted compounds
On this scale, pIC50 is minus log10 of a concentration expressed in M (mol/L).

Example entries and their recorded answers appear below.
COMPOUND: CC(C(=O)Nc1cc(F)cc(Cl)c1)N1C[C@@H]2C[C@H]1CN2CC(=O)NC1(C(F)(F)F)CC1 (some centres unmarked)
pIC50: 6.67
//
COMPOUND: N#CC1(CN2C3CC2CN(CC(=O)Nc2cc(F)cc(Cl)c2)C3)CCCCC1
pIC50: 5.84
//
COMPOUND: Fc1cc(Cl)c2nc(CN3CC4CC(C3)N4CC(F)C3CCCCC3)[nH]c2c1 (centres unmarked)
pIC50: 6.53
//
COMPOUND: CC(C)(C)NC(=O)CN1C2CC(CC(=O)Nc3cc(F)cc(Cl)c3)CC1C2 (centres unmarked)
pIC50: 5.23
//
COMPOUND: CC(C)(C)NC(=O)CN1C2CC1CN(CC(=O)Nc1cccc(C(F)F)c1)C2
pIC50: 6.51
//
COMPOUND: O=C(CN1C2CC1CN(Cc1nc3c(Cl)cc(F)cc3[nH]1)C2)OC1CCCC1
pIC50: 6.79
//
COMPOUND: CC(C)(C)NC(=O)CN1CC2CC1CN2CC(=O)Nc1cccc(C(F)F)c1 (centres unmarked)
pIC50: 6.31
//
COMPOUND: CC(C)(NC(=O)CN1CC2CC1CN2CC(=O)Nc1cc(F)cc(Cl)c1)C(F)(F)F (centres unmarked)
pIC50: 7.47

Answer with reported pIC50 of `CC(C)(C)NC(=O)CN1CCO[C@H](CNC(=O)c2ccc(F)c(OC(F)F)c2)C1`
5.24

Provide one value: measured pIC50 of `O=C(CN1C[C@H]2C[C@@H]1CN2CC(=O)NC1(C(F)(F)F)CC1)Nc1ccc(F)c(Cl)c1`
5.80

Tell me pIC50 reported for `CC(C)(NC(=O)CN1C[C@H]2C[C@@H]1CN2CC(=O)Nc1ccc(F)c(Cl)c1)C(F)(F)F`
6.34

Fill in pIC50 for record `CC(C)(C)NC(=O)CN1C2CCC1CN(CCc1nc3c(Cl)cc(F)cc3[nH]1)C2`
5.94

Quote pIC50 reported for `OC1(CCN2C3CCC2CN(Cc2nc4c(Cl)cc(F)cc4[nH]2)C3)CCCC1` please.
6.76

Report pIC50, nothing else, for this compound: CC(C(=O)Nc1ccc(F)c(Cl)c1)N1CC2CC(C1)N2CC(=O)NC(C)(C)C (centres unmarked)
6.47

Fill in reported pIC50 for this entry: `COc1cccc(CN2CCN(Cc3nc4c(Cl)cc(F)cc4[nH]3)CC2)c1`
6.51

Fill in pIC50 for record O=C(CN1CC2CC1CN2CCNC(=O)C1(C(F)(F)F)CCC1)Nc1cc(F)cc(Cl)c1 (centres unmarked)
6.62

Provide measured pIC50 value, entry: `CC(C)(C)NC(=O)CN1C2CC1CN(CC(=O)Nc1cc(F)cc(C#N)c1)C2`
6.17
